test system: HL-60(TB) leukemia; assay: NCI tumour cell line growth inhibition, 48 h
Where a SMILES comes first, the peptide text is derived from it. [ ]: non-standard residue; d: D form. The star is where a group is joined. X28 = COC1=CC(=O)N(C(=O)[C@@H](O*)C(C)C)[C@H]1Cc1ccccc1; NMeL = CN[C@@H](CC(C)C)C(=O)O; Hexanoyl = CCCCCC(=O)*

| MOLECULE | TGI |
| --- | --- |
| CC(C)C[C@H](NC(=O)[C@@H](Cc1cccc2ccccc12)NC(=O)N1CCOCC1)B(O)O | > 24.6 µM |
| N#CC(C#N)=C1NC(=O)C(c2ccccc2)C(=O)N1 (stereo not drawn) | > 100 µM |
| CCOC(=O)C1(C(=O)OCC)C[C@H]2CON=C2[C@@H]1c1ccc(C(F)(F)F)cc1 | > 100 µM |
| Cn1c(=O)c(F)c(Nc2ccc(I)cc2F)c2c(=O)n(C[C@@H](O)CO)cnc21 | 23.1 µM |
| COc1ccc(NS(=O)C2CCCCC2)cc1 (stereo not drawn) | > 100 µM |
| CCCCCC(=O)N[C@H](C(=O)N[C@H](C(=O)N(C)[C@@H](CC(C)C)C(=O)N1CCC[C@H]1C(=O)N1CCC[C@H]1C(=O)O[C@H](C(=O)N1C(=O)C=C(OC)[C@@H]1Cc1ccccc1)C(C)C)C(C)C)C(C)C (Hexanoyl-VV[NMeL]PP-X28) | 6.2 µM |
| COC(=O)c1c(-c2ccccc2)csc1NC(=O)c1c(-c2ccccc2)noc1C | > 100 µM |
| CC(O)CN(CCN(CC(C)O)CC(C)O)CC(C)O.O=[N+]([O-])O.[Cu+2] (stereo not drawn) | > 100 µM |
